assay: cn = amount concentration of the nth substance listed, in mol/dm3; settings: 323.15 K; 101 kPa; Liquid; c1 = 0.2
Property label: viscosity (mPa·s)

Compound	viscosity [mPa·s]
OC[C@@H](O)[C@@H](O)[C@H](O)[C@H](O)CO [mannitol] + O	0.6062
OC[C@@H](O)[C@@H](O)[C@H](O)[C@@H](O)CO [D-sorbitol] + O	0.5983
OC[C@@H](O)[C@@H](O)CO [meso-1,2,3,4-butanetetrol] + O	0.5849
OC[C@@H](O)[C@H](O)[C@@H](O)CO [xylitol] + O	0.5916
OC[C@@H](O)[C@@H](O[C@H]1O[C@H](CO)[C@@H](O)[C@H](O)[C@H]1O)[C@H](O)[C@@H](O)CO [4-O-α-D-glucopyranosyl-D-glucitol] + O	0.652

* * *

test: cn = amount concentration of the nth substance listed, in mol/dm3; conditions: 293.15 K; 101 kPa; Liquid; c1 = 0.9
Property label: viscosity (mPa·s)

Molecule	viscosity [mPa·s]
OC[C@@H](O)[C@@H](O)[C@H](O)[C@@H](O)CO [D-sorbitol] + O	1.531
OC[C@@H](O)[C@H](O)[C@@H](O)CO [xylitol] + O	1.423

1: OC[C@@H](O)[C@@H](O)CO [meso-1,2,3,4-butanetetrol] + O
2: OC[C@@H](O)[C@@H](O[C@H]1O[C@H](CO)[C@@H](O)[C@H](O)[C@H]1O)[C@H](O)[C@@H](O)CO [4-O-α-D-glucopyranosyl-D-glucitol] + O
// which entry reports the smaller viscosity, 1 or 2 ? The response must carry the label of the picked entry. 1
(1: 1.306 mPa·s, 2: 2.49 mPa·s)

* * *

test: cn = amount concentration of the nth substance listed, in mol/dm3; details: 323.15 K; 101 kPa; Liquid; c1 = 0.5
Property label: viscosity (mPa·s)

Compound	viscosity, mPa·s
OC[C@@H](O)[C@@H](O)CO [meso-1,2,3,4-butanetetrol] + O	0.6351
OC[C@@H](O)[C@H](O)[C@@H](O)CO [xylitol] + O	0.6596
OC[C@@H](O)[C@@H](O[C@H]1O[C@H](CO)[C@@H](O)[C@H](O)[C@H]1O)[C@H](O)[C@@H](O)CO [4-O-α-D-glucopyranosyl-D-glucitol] + O	0.8723
OC[C@@H](O)[C@@H](O)[C@H](O)[C@H](O)CO [mannitol] + O	0.7104
OC[C@@H](O)[C@@H](O)[C@H](O)[C@@H](O)CO [D-sorbitol] + O	0.6841

* * *

assay: cn = amount concentration of the nth substance listed, in mol/dm3; conditions: 293.15 K; 101 kPa; Liquid; c1 = 0.8
Property label: mass density (kg/m3)

Molecule	mass density [kg/m3]
OC[C@@H](O)[C@@H](O[C@H]1O[C@H](CO)[C@@H](O)[C@H](O)[C@H]1O)[C@H](O)[C@@H](O)CO [4-O-α-D-glucopyranosyl-D-glucitol] + O	1071.89
OC[C@@H](O)[C@H](O)[C@@H](O)CO [xylitol] + O	1038.78
OC[C@@H](O)[C@@H](O)[C@H](O)[C@@H](O)CO [D-sorbitol] + O	1049.36
OC[C@@H](O)[C@@H](O)CO [meso-1,2,3,4-butanetetrol] + O	1026.82
OC[C@@H](O)[C@@H](O)[C@H](O)[C@H](O)CO [mannitol] + O	1047.31
